assay: yeast display, Sf9 membrane polyspecificity reagent, FACS + sequencing; frameworks hold sequencing errors
Observation type: polyreactivity (PSR sort gate)

Take a look at these entries with their results.
Residue string: QVQLVESGGGLVQAGGSLRLSCAASGSTFWHNAMGWYRTAHGKERELVAGISSIGGRTYYADSVKGRFTISRDNAKNTVYLQMNSLKQEDTAVYYCAARYRRTIPWFAPGTDHNYWGQGTQVTVSS
Observed: high polyreactivity
--
Residue string: QVQLVESGGGLVQAGGSLRLSCASSGSTFTGNAMGWYRQAPGKERELVAAISYRGVSTSYADSVKGRFTISRDNAKNTVYLQMNSLKPEDTAVYYCAKRRSLVRSIPFDSWGQGTQVTVSS
Observed: low polyreactivity
--
Residue string: QVQLVESGGGLVQAGGSLRLSCAASGRIFSGYTMGWYRQAPGKERELVAAITRSGGSTYYADSVKGRFTISRDNAKNTVYLQMISLKPEDTAVYYCNKVSYRHMDSWGQGTQVTVSS
Observed: high polyreactivity
--
Residue string: QVQLVESGGGLVQAGGSLRLSCAASGRIFPRNTMGWYRQAPGKERELVAAISTRGGSTYYADSVKGRSTISRDNAKNNVYLQMNSLKPEDTAVYYCAAGRRFPAIYSTGNYWGQGTQVTVSS
Observed: high polyreactivity

[in] Provide only the value of recorded polyreactivity (PSR sort gate) for QVQLVESGGGLVQAGGSLRLSCAASGSIFGYNAMGWYRQAPGKETELVAVITRSDGSTYYADSVKGRFTISRDNAKNTVYLQMNSLKPVDTAVYYCNAETHVYYWGVVIYEYNYWGQGTQVTVSS
[out] low polyreactivity

[in] Name the recorded polyreactivity (PSR sort gate) of the sequence listed here: QVQLVESGGGLVQAGGSLRLSCAASGFTFVYYAMGWYRQAPGKERELVAAISGRGGSTYYADSVKGRFTISRDNAKNTVYLQMNSLKPEDTAVYYCATTYSWYYVPDKTHIYYYWGQGTQVTVSS
[out] low polyreactivity

[in] Supply reported polyreactivity (PSR sort gate) belonging to this sequence: QVQLQESGGGLVQAGGSLRLGCAASGNISDAGYMGWYRQAPGKEREFVAAIAAGSNTNYADSVKGRFTISRDNAINTVYLQMNSLKPEVTAVFYCAVASYARVQYEYWGQGTQVTVNS
[out] low polyreactivity

[in] State, in one line, measured polyreactivity (PSR sort gate) of QVQLVESGGGLVQAGGSLRLSCAASGSIFGKNAMGWYRQAPGKERELVAAISFSGGSTYYADSVKGRFTISRDNAKNTVYLQMNSLKPEDTAVYYCAARKYSWYPAGGYDYWGQGTQVTVSS
[out] high polyreactivity

[in] State its polyreactivity (PSR sort gate) for this sequence: QVQLVESGGGLVQAGGSLRLSCAASGSIFTYYAMGRYRQAPGKDRQLVAAISSNGGSTYYADSVKGRFTISRDNAKNTVYLQMNSLKPEDTAVYYCATVVNTWYQNGYEYWGQGTQVTVSS
[out] low polyreactivity

[in] Indicate its recorded polyreactivity (PSR sort gate); the sequence in question is QVQHVESRGGLVQAGGSLRLSCAASGSTFGVYAMGRYRQAPGKERELDASISSGGRTKYADSVKGRFTISRDNAKNTVYLQMNSLKPEDTAVYFCAARIRYLGVRDNDNYYCGQGTQVTVSS
[out] low polyreactivity

[in] Fill in polyreactivity (PSR sort gate) for record QVQLVESGGGLVQAGGSLRLSSAASGITFAYYAMGWYRLAPGTVRELVAAISSTGSSTYYADSVKGRFTISRDNAKNTVYLQMNSLKPEDTAVYYCAARVHYRGIVRYDYWGQGTQVTVSS
[out] high polyreactivity

The values you see were collected from the nanobody polyreactivity screen of Harvey et al. (2022).
